test: resazurin metabolic signal in A549 cells – cell-based, resazurin fluorescence, 24 h, PK04 Diversity Set, profiling panel (AID 1171); details: A549 viability; higher = more signal, called active from +8 up or from −8 down unless noted; further: test concentration not given here
The source made the active and inactive calls.

{"columns": ["molecule", "z-score"],
 "data": [
  ["CN1CCc2nc(CO)c(CO)cc2C1", "0.515 (inactive)"],
  ["CCCC=C(CCC)[C@@H](NP(=O)(c1ccccc1)c1ccccc1)c1ccccc1", "1.82 (inactive)"],
  ["OCc1ccc(C2=CC(C3CC3)N(Cc3sc4ccccc4c3Cl)CC2)cc1 (stereo not given)", "-0.497 (inactive)"],
  ["COC(=O)[C@@]1(Cc2ccc(F)cc2)[C@H]2c3cc(C(=O)N(C)C)[nH]c3C[C@H]2CN1C(=O)c1ccccc1", "-0.868 [setting not given] (inactive)"],
  ["CCCc1cc2c(n1Cc1ccc(C)cc1)C(C)C1CN(C(=O)c3ccccc3)C(C)(C(=O)OC)C21 (stereo not given)", "-1.58 (inactive)"]
]}
